All figures here come from patent US8354111B2.

# maps each entry to its viability at 48 h
assay: Toxicity assessment, cell survival of endothelial cells; format: cell-based; conditions: bovine, endothelial cells (BAEC), increasing concentrations up to 1,000 ng/ml, 48 hours of exposure
No end group written: not given here.

| RESIDUES | viability at 48 h / % |
| --- | --- |
| VFQKRLDGSVDFKK [M-tide, VFQKR LDGSV DFKK] | 100 |
| KTRWYSMKKTTMK [haptide, KTRWYSMKKTTMK, reference compound] | 100 |
| KTRWYSMKKTTMKVFQKRLDGSVDFKK [chimeric peptide] | 100 |

====

Experiment: Toxicity assessment, cell survival of fibroblasts
Type: cell-based
Settings: human, fibroblasts (FF), increasing concentrations up to 1,000 ng/ml, 48 hours of exposure
Experimental: The chimeric peptides of the invention and the peptides from which they are derived were found safe, non-toxic, to normal cells such endothelial cells (BAEC; FIG. 9a) and fibroblasts (FF; FIG. 9B). Cells incubated with increasing concentrations (up to 1,000 ng/ml) of the chimeric peptide (black square), the haptide alone (white/empty circle) or the M-tide alone (white/empty square), maintained 100% survival. Cell survival was measured following 48 hours of exposure to the peptides.
No end group written: not given here.

| RESIDUES | viability at 48 h, % |
| --- | --- |
| VFQKRLDGSVDFKK [M-tide, VFQKR LDGSV DFKK] | 100 |
| KTRWYSMKKTTMKVFQKRLDGSVDFKK [chimeric peptide] | 100 |
| KTRWYSMKKTTMK [haptide, KTRWYSMKKTTMK, reference compound] | 100 |
